studySystem: Mouse ACVR2A (mouse, UniProt P27038 20-135, limits assumed); note: test concentration or dose not given here
Sequence (P27038 20-135 limits assumed): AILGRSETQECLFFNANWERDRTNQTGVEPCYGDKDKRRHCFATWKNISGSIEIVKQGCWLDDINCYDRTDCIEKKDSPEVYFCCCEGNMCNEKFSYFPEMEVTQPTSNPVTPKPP
procedureDetails: ELISA
optical density: recorded values
Numbers only here, please. The scale is OD.

{"columns": ["binder", "reportedValue"],
 "data": [
  ["374_G05 (antibody, V domains shown, VH/VL only) VH: EVQLLESGGGLVQPGGSLRLSCAASGFTFSSYSMNWVRQAPGKGLEWVSNINYNSGYKGYADSVKGRFTISRDNSKNTLYLQMNSLRAEDTAVYYCARGATWHDTHLDYWGQGTLVTVSS VL: DIQMTQSPSSLSASVGDRVTITCRASQSIISYLNWYQQKPGKAPKLLIYAATSRASGVPSRFSGSGSGTDFTLTISSLQPEDFATYYCQQSYDLPLTFGGGTKVEIK", 3.67]
]}

*Q* optical density lookup needed for 365_C10 (antibody, V domains shown, VH/VL only) VH: EVQLLESGGGLVQPGGSLRLSCAASGFTFSSYGMHWVRQAPGKGLEWVASINYNGGYTSYADSVKGRFTISRDNSKNTLYLQMNSLRAEDTAVYYCARSANWHDTALDYWGQGTLVTVSS VL: DIQMTQSPSSLSASVGDRVTITCRASQSILSYVNWYQQKPGKAPKLLIYAATSLASGVPSRFSGSGSGTDFTLTISSLQPEDFATYYCQQSYESPLTFGGGTKVEIK , thanks.
*A* 2.44

*Q* optical density lookup needed for 368_H11 (antibody, V domains shown, VH/VL only) VH: EVQLLESGGGLVQPGGSLRLSCAASGFTFDSYGMHWVRQAPGKGLEWVASINYNGGYTSYADSVKGRFTISRDNSKNTLYLQMNSLRAEDTAVYYCARGATWHDTHLDYWGQGTLVTVSS VL: DIQMTQSPSSLSASVGDRVTITCRASQSILSYLNWYQQKPGKAPKLLIYAATSRASGVPSRFSGSGSGTDFTLTISSLQPEDFATYYCQQSDDTPLTFGGGTKVEIK , thanks.
*A* 2.13

*Q* optical density lookup needed for 365_C02 (antibody, V domains shown, VH/VL only) VH: EVQLLESGGGLVQPGGSLRLSCAASGFTFDSYSMNWVRQAPGKGLEWVSNINYNGGYKGYADSVKGRFTISRDNSKNTLYLQMNSLRAEDTAVYYCARGATWHDTHLDYWGQGTLVTVSS VL: DIQMTQSPSSLSASVGDRVTITCRASQSISTYLNWYQQKPGKAPKLVIYAATSRHSGVPSRFSGSGSGTDFTLTISSLQPEDFATYYCQQSYENPLTFGGGTKVEIK , thanks.
*A* 2.33

*Q* optical density lookup needed for 365_C04 (antibody, V domains shown, VH/VL only) VH: EVQLLESGGGLVQPGGSLRLSCAASGFTFDSYSMNWVRQAPGKGLEWVANINYNGGYKGYADSVKGRFTISRDNSKNTLYLQMNSLRAEDTAVYYCARGATWHDTHLDYWGQGTLVTVSS VL: DIQMTQSPSSLSASVGDRVTITCRASQSILTYLNWYQQKPGKAPKLVIYAATSLASGVPSRFSGSGSGTDFTLTISSLQPEDFATYYCQQSYDTPLTFGGGTKVEIK , thanks.
*A* 2.67

*Q* optical density lookup needed for 376_G06 (antibody, V domains shown, VH/VL only) VH: EVQLLESGGGLVQPGGSLRLSCAASGFTFSSYGMNWVRQAPGKGLEWVAGINYNGGYTGYADSVKGRFTISRDNSKNTLYLQMNSLRAEDTAVYYCARGANWHDTHLDYWGQGTLVTVSS VL: DIQMTQSPSSLSASVGDRVTITCRASQSIVSYVNWYQQKPGKAPKLVIYAATSRASGVPSRFSGSGSGTDFTLTISSLQPEDFATYYCQQSYNSPLTFGGGTKVEIK , thanks.
*A* 3.58

*Q* optical density lookup needed for 367_E07 (antibody, V domains shown, VH/VL only) VH: EVQLLESGGGLVQPGGSLRLSCAASGFTFSDYSMNWVRQAPGKGLEWVSSINYNGGYKGYADSVKGRFTISRDNSKNTLYLQMNSLRAEDTAVYYCARGATWHDTHLDYWGQGTLVTVSS VL: DIQMTQSPSSLSASVGDRVTITCRASQSILSYVNWYQQKPGKAPKLVIYAATSRASGVPSRFSGSGSGTDFTLTISSLQPEDFATYYCQQSYENPLTFGGGTKVEIK , thanks.
*A* 2.06

*Q* optical density lookup needed for 366_B12 (antibody, V domains shown, VH/VL only) VH: EVQLLESGGGLVQPGGSLRLSCAASGFTFSSYSMNWVRQAPGKGLEWVAGINYNSGYKGYADSVKGRFTISRDNSKNTLYLQMNSLRAEDTAVYYCARSANWHDTALDYWGQGTLVTVSS VL: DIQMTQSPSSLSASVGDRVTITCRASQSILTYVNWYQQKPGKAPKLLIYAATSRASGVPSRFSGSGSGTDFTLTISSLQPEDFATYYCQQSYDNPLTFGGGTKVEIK , thanks.
*A* 2.99

*Q* optical density lookup needed for 367_B03 (antibody, V domains shown, VH/VL only) VH: EVQLLESGGGLVQPGGSLRLSCAASGFTFSSYGMNWVRQAPGKGLEWVAGINYNGGYKSYADSVKGRFTISRDNSKNTLYLQMNSLRAEDTAVYYCARSANWHDTALDYWGQGTLVTVSS VL: DIQMTQSPSSLSASVGDRVTITCRASQSILTYLNWYQQKPGKAPKLLIYAATSLASGVPSRFSGSGSGTDFTLTISSLQPEDFATYYCQQSYNLPLTFGGGTKVEIK , thanks.
*A* 2.66

*Q* optical density lookup needed for 371_E09 (antibody, V domains shown, VH/VL only) VH: EVQLLESGGGLVQPGGSLRLSCAASGFTFSDYSMNWVRQAPGKGLEWVSGINYNSGYTSYADSVKGRFTISRDNSKNTLYLQMNSLRAEDTAVYYCARGATWHDTHLDYWGQGTLVTVSS VL: DIQMTQSPSSLSASVGDRVTITCRASQSILTYLNWYQQKPGKAPKLLIYAATSRASGVPSRFSGSGSGTDFTLTISSLQPEDFATYYCQQSYNSPLTFGGGTKVEIK , thanks.
*A* 2.28

Measured values drawn from patent US20210380703A1 for this set.
